Reported IC50 values are given for each entry in this list.
Assayed Target: PIM1 serine/threonine kinase (Homo sapiens, UniProt P11309)
Construct: purchased Carna Bioscience, Inc
Experimental Details: PIM1 serine/threonine kinase inhibitory effect
Assay type: biochemical
Experimental Setup: PIM1 serine/threonine kinase activity; ATP 40 μM; 30° C., 30 minutes
Where a name gives a salt, the structure may show the parent alone.
Reply with just the number (in nM).

Compound	IC50, nM
O=c1[nH]nc(-c2ccc(C(F)(F)F)c(NC[C@@H]3CCNC[C@H]3F)c2)o1 [Example 127, hydrochloride]	21
N[C@H]1CC[C@@H](Nc2cc(-c3n[nH]c(=O)o3)ccc2Cl)CC1 [Example 33, hydrochloride]	6.2
N[C@@H]1CCCN(CCNc2cc(-c3n[nH]c(=O)o3)ccc2C(F)(F)F)C1 [Example 72, dihydrochloride]	8.4

Attention now shifts to the item below.
Answer with reported IC50 of C[C@@H](Nc1cc(-c2n[nH]c(=O)o2)ccc1C(F)(F)F)C1CCNCC1 [Example 59, hydrochloride]
16

---

Assayed Target: PIM1 serine/threonine kinase (Homo sapiens, UniProt P11309)
Experimental Details: PIM1 serine/threonine kinase inhibitory effect
Experimental Setup: PIM1 serine/threonine kinase activity; ATP 40 μM; 30° C., 30 minutes
Where a name gives a salt, the structure may show the parent alone.
Experimental Readout: IC50

Compound	IC50
C[C@H](Nc1c(F)c(-c2n[nH]c(=O)o2)cc(F)c1Cl)C1CCNCC1 [Example 88, hydrochloride]	2.4 nM
CC(C)Oc1c(F)cc(-c2n[nH]c(=O)o2)cc1N[C@@H](C)[C@H]1CC[C@H](N)CC1 [Example 175, dihydrochloride]	17 nM
CC[C@H](Nc1cc(-c2n[nH]c(=O)o2)ccc1C(F)(F)F)C1CCNCC1 [Example 138, hydrochloride]	4 nM

Tell me measured IC50 for NC1CC2(C1)CC(Nc1cc(-c3n[nH]c(=O)o3)ccc1C(F)(F)F)C2 (stereo not shown) [Example 43, hydrochloride] please.
9.2 nM

Identify measured IC50 associated with CC(C[C@H]1CCNC1)Nc1cc(-c2n[nH]c(=O)o2)ccc1C(F)(F)F (stereo partly shown) [Example 136, hydrochloride]
16 nM

Supply recorded IC50 for O=c1[nH]nc(-c2ccc(C(F)(F)F)c(NC[C@@H]3CCCNC3)c2)o1 [Example 54, hydrochloride] here.
13 nM

Indicate the recorded IC50 value for this compound: C[C@H](Nc1cc(-c2n[nH]c(=O)o2)cc(F)c1OC(F)(F)F)[C@H]1CC[C@H](N)CC1 [Example 170, hydrochloride]
1.8 nM

---

IC50 listing for selected compounds.
Assayed Target: PIM1 serine/threonine kinase (Homo sapiens)
Experimental Details: PIM1 serine/threonine kinase inhibitory effect
Experimental Setup: PIM1 serine/threonine kinase activity; ATP 40 μM; 30° C., 30 minutes
Structures can show the parent of a compound that is named as a salt.
Reply with just the number (in nM).

Some solved entries appear below for comparison.
Compound	Unit Info	Val
N[C@H]1CC[C@H](Nc2cc(-c3n[nH]c(=O)o3)ccc2C(F)(F)F)CC1 [Example 34, hydrochloride]	nM	4
CC(C)(C)OC(=O)N1CCN(c2cc(-c3n[nH]c(=O)o3)ccc2Cl)CC1	nM	4100
NCc1ccc(-c2cc(-c3n[nH]c(=O)o3)ccc2C(F)(F)F)cc1 [Example 20, hydrochloride]	nM	33
C[C@H](Nc1c(F)c(-c2n[nH]c(=O)o2)cc(F)c1Cl)[C@H]1CC[C@H](N)CC1 [Example 169, hydrochloride]	nM	6.5
O=c1[nH]nc(-c2ccc(Cl)c(NC[C@@H]3CCNC3)c2)o1 [Example 49, hydrochloride]	nM	18
C[C@@H](Nc1cc(-c2n[nH]c(=O)o2)ccc1C(F)(F)F)[C@H]1CC[C@H](N)CC1 [Example 111, hydrochloride]	nM	6.4
C[C@H](Nc1cc(-c2n[nH]c(=O)o2)cc(F)c1C(F)(F)F)[C@@H]1C[C@H](N)C1(C)C [Example 150, hydrochloride]	nM	2
CCC(Nc1cc(-c2n[nH]c(=O)o2)ccc1C(F)(F)F)C1CCNCC1 (stereo not drawn) [Example 56, hydrochloride]	nM	7

Moving on to another compound below.
Please give the documented IC50 of N[C@H]1CC[C@H](CNc2cc(-c3n[nH]c(=O)o3)ccc2Br)CC1 [Example 68, hydrochloride]
1.4

---

Assayed Target: PIM1 serine/threonine kinase (Homo sapiens)
Experimental Details: PIM1 serine/threonine kinase inhibitory effect
Experimental Setup: PIM1 serine/threonine kinase activity; ATP 40 μM; 30° C., 30 minutes
Counter-ions that a name gives are not always drawn.
The following molecules are shown together with reported IC50 values.
Output spec: scalar in nM, unitless text.

Molecule	Unit Info	IC50
CC(Oc1cc(-c2n[nH]c(=O)o2)ccc1C(F)(F)F)C1CCNCC1 (stereo not drawn) [Example 239]	nM	10
Cc1c(F)cc(-c2n[nH]c(=O)o2)cc1N[C@@H](C)[C@H]1CCNC[C@H]1F [Example 227]	nM	7.7
O=c1[nH]nc(-c2ccc(C(F)(F)F)c(NCCC3CCCNC3)c2)o1 (stereo not drawn) [Example 60, hydrochloride]	nM	13
C[C@@H](C1CCNCC1)N1CCOc2c(F)cc(-c3n[nH]c(=O)o3)cc21 [Example 248]	nM	10
C[C@H](Nc1cc(-c2n[nH]c(=O)o2)cc(F)c1OC(F)(F)F)C1(C)CCNCC1 [Example 207]	nM	2.6
O=c1[nH]nc(-c2ccc(C(F)(F)F)c(NCC3(F)CCCNC3)c2)o1 (stereo not drawn) [Example 109, hydrochloride]	nM	28
CC(C)Oc1c(Cl)cc(-c2n[nH]c(=O)o2)cc1N[C@@H](C)C1CCNCC1 [Example 103, hydrochloride]	nM	5
O=c1[nH]nc(-c2ccc(C(F)(F)F)c(N[C@@H](C(F)F)C3(F)CCNCC3)c2)o1 [Example 140, hydrochloride]	nM	4.1

Retrieve IC50 measured for COc1c(Cl)cc(-c2n[nH]c(=O)o2)cc1N[C@@H](C)C1CCNCC1 [Example 104, hydrochloride] and print it.
4

Retrieve IC50 measured for CO/N=C1\CCN([C@@H](C)[C@H]2CCNC[C@H]2C)c2cc(-c3n[nH]c(=O)o3)cc(F)c21 [Example 246, hydrochloride] and print it.
1.9

---

Assayed Target: PIM3 transgenic cells (Ba/F3) (Homo sapiens, UniProt Q86V86)
Experimental Details: Proliferation inhibitory effect on PIM3 transgenic cells
Assay type: cell-based, mouse
Experimental Setup: proliferation inhibition, 72 hours, Cell Counting Kit-8, read-out: PIM3 IC50
The entries below come with measured GI50 values attached.
Write it as a number; the unit µM goes unstated.

Compound	Val
C[C@H](Nc1cc(-c2n[nH]c(=O)o2)cc(F)c1C(F)(F)F)C1CCNCC1.Cl [Example 75, hydrochloride]	0.12
C[C@H](Nc1cc(-c2n[nH]c(=O)o2)cc(F)c1OC(F)(F)F)[C@H]1CCNC[C@H]1F	0.035

Here is the next item to consider.
For the compound CC[C@@H]1CNCC[C@@H]1[C@H](C)Nc1cc(-c2n[nH]c(=O)o2)cc(F)c1C(F)(F)F , report GI50.
0.051

---

Assayed Target: PIM1 transgenic cells (Ba/F3) (Homo sapiens, UniProt P11309)
Sequence (P11309 whole entry, change not shown): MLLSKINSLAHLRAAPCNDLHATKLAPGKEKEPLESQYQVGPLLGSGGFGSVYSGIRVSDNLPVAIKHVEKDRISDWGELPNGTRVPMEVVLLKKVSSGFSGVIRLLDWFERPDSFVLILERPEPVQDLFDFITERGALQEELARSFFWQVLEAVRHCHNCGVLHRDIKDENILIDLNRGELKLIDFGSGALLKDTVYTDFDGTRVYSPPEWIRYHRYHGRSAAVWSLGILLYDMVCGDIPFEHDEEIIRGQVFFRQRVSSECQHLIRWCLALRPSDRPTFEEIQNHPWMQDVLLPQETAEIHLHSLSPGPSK
Experimental Details: Proliferation inhibitory effect on PIM1 transgenic cells
Assay type: cell-based, mouse
Experimental Setup: proliferation inhibition, 72 hours, Cell Counting Kit-8, read-out: PIM1 IC50
Where a name gives a salt, the structure may show the parent alone.
Just a reminder that ties go to Criterion not met: only GI50 strictly below 100 nM counts as Criterion met.

Would you please look over these solved cases?
Compound	Category Label
C[C@H](Nc1cc(-c2n[nH]c(=O)o2)cc(F)c1Cl)[C@H]1CC[C@H](N)CC1 [Example 177, hydrochloride]	Criterion met
CN(C[C@H]1CC[C@H](N)CC1)c1cc(-c2n[nH]c(=O)o2)ccc1C(F)(F)F [Example 130, hydrochloride]	Criterion not met
O=c1[nH]nc(-c2ccc(C(F)(F)F)c(C#CC3CCNCC3)c2)o1 [Example 29, hydrochloride]	Criterion not met
C[C@@H](C1CCNCC1)N1CCOc2c(F)cc(-c3n[nH]c(=O)o3)cc21	Criterion not met

Next:
Could you please tell me whether GI50 recorded for CC(C)Oc1c(F)cc(-c2n[nH]c(=O)o2)cc1N[C@@H](C)[C@H]1CC[C@H](N)CC1 [Example 175, dihydrochloride] is less than 100 nM?
Criterion not met

---

Listing: pIC50 of selected compounds
Assayed Target: PIM1 serine/threonine kinase (Homo sapiens)
Experimental Details: PIM1 serine/threonine kinase inhibitory effect
Experimental Setup: PIM1 serine/threonine kinase activity; ATP 40 μM; 30° C., 30 minutes
Counter-ions that a name gives are not always drawn.
pIC50 is defined as minus the log10 of a concentration measured in mol/L.

Retrieve pIC50 measured for CCOc1c(F)cc(-c2n[nH]c(=O)o2)cc1N[C@@H](C)[C@H]1CC[C@H](N)CC1 [Example 173, dihydrochloride] and print it.
8.00

Please report pIC50 for the following compound: C[C@@H]1CNCC[C@@H]1[C@H](C)Nc1cc(-c2n[nH]c(=O)o2)ccc1OC(F)F
8.21

Tell us which pIC50 value is on record for O=c1[nH]nc(-c2ccc(C(F)(F)F)c(NC[C@H]3CCNC[C@H]3F)c2)o1 [Example 126, hydrochloride]
7.96

Give pIC50 for C[C@H](Nc1cc(-c2n[nH]c(=O)o2)ccc1C(F)(F)F)C12C3C4C1C1C2C3C41N (stereo partly shown) [Example 186, hydrochloride]
7.96

Tell me measured pIC50 for CN(CC1CCNCC1)c1cc(-c2n[nH]c(=O)o2)ccc1C(F)(F)F [Example 51, hydrochloride] please.
7.85

Provide only the value of recorded pIC50 for CN[C@H]1CC[C@H]([C@H](C)Nc2cc(-c3n[nH]c(=O)o3)cc(F)c2C(F)(F)F)CC1 [Example 190, hydrochloride]
8.72

Could you please provide reported pIC50 for C[C@H]1CN([C@@H](C)C2CCNCC2)c2cc(-c3n[nH]c(=O)o3)cc(F)c2O1 ? Thanks!
7.92

The reported measurements were obtained from patent US20220024921A1.
